Target: N-acylethanolamine-hydrolyzing acid amidase (Rattus norvegicus)
Sequence (Q5KTC7 34-130 limits assumed): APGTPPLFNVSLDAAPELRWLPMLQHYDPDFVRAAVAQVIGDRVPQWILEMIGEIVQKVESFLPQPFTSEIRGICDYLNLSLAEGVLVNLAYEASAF
Sequence (Q5KTC7 131-362 limits assumed): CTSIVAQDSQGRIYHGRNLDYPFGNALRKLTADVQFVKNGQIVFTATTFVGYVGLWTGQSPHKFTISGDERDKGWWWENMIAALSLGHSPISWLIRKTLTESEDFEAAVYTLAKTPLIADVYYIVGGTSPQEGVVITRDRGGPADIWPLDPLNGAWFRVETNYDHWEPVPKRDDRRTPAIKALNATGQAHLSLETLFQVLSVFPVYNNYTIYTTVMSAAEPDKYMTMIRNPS
Assay: Inhibition of rat recombinant NAAA expressed in HEK293 cells using heptadecenoylethanolamide as substrate after 30 mins by LC/MS analysis
// map IC50 onto a label; ranges class 1: < 500 nM; class 2: ≥ 500 nM and < 5000 nM; class 3: ≥ 5000 nM

These solved cases illustrate the format of a correct answer.
In [3]: df
Out[3]:
                                   compound                        measurement_target  category_label
0           O=C(N[C@H](CO)C(=O)O)OCc1ccccc1  N-acylethanolamine-hydrolyzing acid amidase (Rattus norvegicus)         class 3
1        C[C@H]1OC(=O)[C@H]1NC(=O)OC(C)(C)C  N-acylethanolamine-hydrolyzing acid amidase (Rattus norvegicus)         class 3
2       C[C@H]1OC(=O)[C@H]1NC(=O)OCc1ccccc1  N-acylethanolamine-hydrolyzing acid amidase (Rattus norvegicus)         class 3
3        O=C(NC1CCC1=O)OCc1ccccc1 (racemic)  N-acylethanolamine-hydrolyzing acid amidase (Rattus norvegicus)         class 3
4  O=C(NC1CCC1)OCc1ccccc1 [CYCLOBUTYLCARBAMIC ACID BENZYL ESTER]  N-acylethanolamine-hydrolyzing acid amidase (Rattus norvegicus)         class 3

Query :: Could you place "C[C@@H]1OC(=O)[C@@H]1NC(=O)OC(C)(C)C" in its proper category? Many thanks.
Result :: class 1

Query :: Could you place "O=C(NCc1ccccc1)N[C@H]1COC1=O" in its proper category? Many thanks.
Result :: class 3

====

Target: Albumin (Bos taurus, UniProt P02769)
Sequence (P02769 whole entry): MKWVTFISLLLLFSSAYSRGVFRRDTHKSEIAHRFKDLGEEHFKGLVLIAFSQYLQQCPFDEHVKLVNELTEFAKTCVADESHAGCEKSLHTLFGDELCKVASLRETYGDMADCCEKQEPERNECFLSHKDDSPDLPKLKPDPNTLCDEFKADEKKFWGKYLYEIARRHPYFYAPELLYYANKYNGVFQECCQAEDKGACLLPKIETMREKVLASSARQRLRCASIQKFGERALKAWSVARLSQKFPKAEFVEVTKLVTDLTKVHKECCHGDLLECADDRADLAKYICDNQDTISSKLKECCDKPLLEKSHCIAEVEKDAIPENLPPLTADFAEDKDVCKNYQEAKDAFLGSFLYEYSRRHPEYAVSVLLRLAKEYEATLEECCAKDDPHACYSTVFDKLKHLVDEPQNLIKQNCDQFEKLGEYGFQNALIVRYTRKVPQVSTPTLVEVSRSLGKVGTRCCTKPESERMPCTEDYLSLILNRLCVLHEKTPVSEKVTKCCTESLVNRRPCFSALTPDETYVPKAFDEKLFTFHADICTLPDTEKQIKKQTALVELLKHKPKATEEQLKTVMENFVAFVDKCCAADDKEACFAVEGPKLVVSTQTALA
Assay: Apparent half life of the compound in bovine serum albumin in phosphate-buffered saline at pH 7.4
Format: ADME
Details: cattle, read-out: t1/2(app)
quantity-measured: log10 half-life (log10 of the value in min)
Reminder: these figures are log10 of reported half-life, in min before transformation.

Report log10 half-life for each item below.
1. C[C@@H]1OC(=O)[C@H]1NC(=O)OC(C)(C)C
2. C[C@H]1OC(=O)[C@H]1NC(=O)OC(C)(C)C
3. C[C@H]1OC(=O)[C@H]1NC(=O)CCc1ccccc1
4. C[C@@H]1OC(=O)[C@@H]1NC(=O)OCCCCCc1ccccc1
5. O=C(N[C@H]1COC1=O)c1ccc(C(=O)Oc2ccccc2)cc1
6. O=C(NCc1ccccc1)N[C@H]1COC1=O
7. O=C(N[C@H]1COC1=O)c1ccc(-c2ccccc2)cc1
8. O=C(N[C@H]1COC1=O)OCc1ccccc1

Result ::
[1.94, 2.08, 1.20, 1.06, 0.43, 0.66, 0.52, 0.08]

Report log10 half-life for each item below.
1. O=C1OCC1CCCCc1ccccc1 (stereo unspecified)
2. CC(C)(C)OC(=O)N[C@H]1COC1=O

Result ::
1. 1.18
2. 1.29

====

Experiment: Apparent half life of the compound in 50% v/v rat plasma by HPLC analysis in presence of eserine
Assay type: ADME, cell-free
Settings: 50% v/v plasma, with eserine, read-out: t1/2(app)
quantity-measured: half-life (min)
One number for each entry, in min.

Query :: For the compound "C[C@@H]1OC(=O)[C@@H]1NC(=O)OC(C)(C)C" , what half-life is on record?
Result :: 4.19

====

Assay: Apparent Half life of the compound in 0.01 M phosphate buffer at pH 5 in presence of 3 mM DTT
Conditions: read-out: t1/2(app)
Label yes when half-life >= 100 min; otherwise no.

These solved cases illustrate the format of a correct answer.
                                   compound  category_label
0  O=C1OCC1CCCCc1ccccc1 (stereo unspecified)             yes
1  C[C@@H]1OC(=O)[C@@H]1NC(=O)OCCCCCc1ccccc1             yes
2  CCOC(=O)c1ccc2cc(C(=O)N[C@H]3COC3=O)ccc2c1              no
3          O=C(N[C@H]1COC1=O)c1ccc2ccccc2c1              no
4     O=C(N[C@H]1COC1=O)c1ccc(-c2ccccc2)cc1              no

Now take the following compound into account.
Query :: Would you say "O=C(N[C@H]1COC1=O)c1ccc(OCc2ccccc2)cc1" shows half-life at minimum 100 min?
Result :: no

====

Assay: Apparent half life of the compound in 50% v/v human plasma by HPLC analysis in presence of PMSF
Type: ADME, cell-free
Settings: 50% v/v plasma, with PMSF, read-out: t1/2(app)
quantity-measured: half-life (min)
Give bare numbers, in min.

Query :: For the compound "C[C@@H]1OC(=O)[C@@H]1NC(=O)OC(C)(C)C" , what half-life is on record?
Result :: 11.5

====

Experiment: Apparent half life of the compound in 50% v/v human plasma by HPLC analysis in presence of eserine
Assay type: ADME, cell-free
Conditions: 50% v/v plasma, with eserine, read-out: t1/2(app)
quantity-measured: half-life (min)
One number for each entry, in min.

Query :: For the compound "C[C@@H]1OC(=O)[C@@H]1NC(=O)OC(C)(C)C" , what half-life is on record?
Result :: 13.8

====

Assay: Apparent Half life of the compound in 0.01 M phosphate-buffered saline at pH 7.4
Format: physicochemical
Conditions: read-out: t1/2(app)
quantity-measured: half-life (min)
Answers are plain numbers, in min.

Examples with answers:
>>> df
                                   compound  quantity_measured  unit_label  test_value
0  O=C1OCC1CCCCc1ccccc1 (configuration not stated)          half-life         min        93.5
1     O=C(N[C@H]1COC1=O)c1ccc(-c2ccccc2)cc1          half-life         min        12.6
2  O=C(N[C@H]1COC1=O)c1ccc(C(=O)Oc2ccccc2)cc1          half-life         min         9.8
3  C[C@@H]1OC(=O)[C@@H]1NC(=O)OCCCCCc1ccccc1          half-life         min         110
4  CCOC(=O)c1ccc2cc(C(=O)N[C@H]3COC3=O)ccc2c1          half-life         min        12.1
5              O=C(CCc1ccccc1)N[C@H]1COC1=O          half-life         min          18
6        C[C@H]1OC(=O)[C@H]1NC(=O)OC(C)(C)C          half-life         min         143
7     C[C@@H]1OC(=O)[C@@H]1NC(=O)OCc1ccccc1          half-life         min         108
8       C[C@H]1OC(=O)[C@H]1NC(=O)CCc1ccccc1          half-life         min        73.8
9    O=C(N[C@H]1COC1=O)c1ccc(OCc2ccccc2)cc1          half-life         min        13.4

Report half-life for each item below.
1. C[C@@H]1OC(=O)[C@H]1NC(=O)OC(C)(C)C
2. CC(C)(C)OC(=O)N[C@H]1COC1=O

Result ::
80.7
33.7

====

Test: Apparent half life of the compound in 50% v/v rat plasma by HPLC analysis
Type: ADME, cell-free
Conditions: 50% v/v plasma, read-out: t1/2(app)
quantity-measured: half-life (min)
Answers are plain numbers, in min.

Query :: For the compound "C[C@@H]1OC(=O)[C@@H]1NC(=O)OC(C)(C)C" , what half-life is on record?
Result :: 0.53

====

Molecular target: UniProtKB P02769
Test: Apparent half life of the compound in bovine serum albumin in phosphate-buffered saline at pH 7.4
Format: ADME
Conditions: cattle, read-out: t1/2(app)
quantity-measured: half-life (min)
One number for each entry, in min.

                   given_smiles  test_value
0  O=C(CCc1ccccc1)N[C@H]1COC1=O           7

Report half-life for each item below.
1. CCOC(=O)c1ccc2cc(C(=O)N[C@H]3COC3=O)ccc2c1
2. C[C@@H]1OC(=O)[C@@H]1NC(=O)OC(C)(C)C
3. O=C(N[C@H]1COC1=O)c1ccc(OCc2ccccc2)cc1
4. C[C@@H]1OC(=O)[C@@H]1NC(=O)OCc1ccccc1

Result ::
[3.2, 129, 5.8, 5.1]

====

Test: Apparent Half life of the compound in 0.01 M phosphate buffer at pH 5
Assay type: physicochemical
Details: read-out: t1/2(app)
Would you mind telling me the reported log10(half-life) of each entry?
Reminder: these figures are log10 of reported half-life, in min before transformation.

Examples with answers:
In [3]: df
Out[3]:
                                   compound  test_value
0  C[C@@H]1OC(=O)[C@@H]1NC(=O)OCCCCCc1ccccc1        2.29
1        C[C@H]1OC(=O)[C@H]1NC(=O)OC(C)(C)C        2.34
2      COc1ccc2cc(C(=O)N[C@H]3COC3=O)ccc2c1        1.26

Report log10(half-life) for each item below.
1. O=C(N[C@H]1COC1=O)c1ccc(-c2ccccc2)cc1
2. C[C@@H]1OC(=O)[C@@H]1NC(=O)OCc1ccccc1
3. CC(C)(C)OC(=O)N[C@H]1COC1=O
4. C[C@@H]1OC(=O)[C@H]1NC(=O)OC(C)(C)C
5. CCOC(=O)c1ccc2cc(C(=O)N[C@H]3COC3=O)ccc2c1
6. O=C1OCC1CCCCc1ccccc1 (configuration not stated)

Result ::
[1.45, 2.27, 1.64, 1.97, 1.40, 2.06]

Report log10(half-life) for each item below.
1. O=C(N[C@H]1COC1=O)c1ccc2ccccc2c1
2. O=C(N[C@H]1COC1=O)OCc1ccccc1

Result ::
1: 1.28; 2: 1.59

Report log10(half-life) for each item below.
1. O=C(N[C@H]1COC1=O)c1ccc(C(=O)Oc2ccccc2)cc1
2. C[C@@H]1OC(=O)[C@@H]1NC(=O)OC(C)(C)C
3. O=C(NCc1ccccc1)N[C@H]1COC1=O
4. C[C@H]1OC(=O)[C@H]1NC(=O)CCc1ccccc1
5. O=C(N[C@H]1COC1=O)c1ccc(OCc2ccccc2)cc1
6. O=C(CCc1ccccc1)N[C@H]1COC1=O

Result ::
1.37
2.38
1.47
2.13
1.37
1.36
